- assayed_system: Acetylcholinesterase (Homo sapiens)
- experiment: Acetylcholinesterase (AChE) small molecule antagonists: enzyme-based qHTS assay (AID 1347397); further: nearly all actives have a fitted effect of over 55% in size
- conditions: AChE enzyme activity inhibition; series mostly up to 115 µM
- Excerpt: National Center for Advancing Translational Sciences [NCATS] Division of Preclinical Innovation [DPI] U.S. Environmental Protection Agency [EPA] National Institutes of Environmental Health Sciences [NIEHS] National Toxicology Program [NTP] U.S. Food and Drug Administration [FDA] Acetylcholinesterase (AChE) is the primary cholinesterase in the body that hydrolyzes a key neurotransmitter, acetylcholine. Inhibition of AChE activity can lead to neurotoxicity. […]
The source made the active and inactive calls. The call rests on the fitted dose curve.
Outcome codes: yes (1) (active), no (0) (inactive)

1. CC(C)(C)c1ccc(OC(=O)c2ccccc2O)cc1 = no (0)
2. CCOC(=O)c1ccccc1 = no (0)
3. COc1ccc2cc1Oc1ccc(cc1)C[C@H]1c3c(cc4c(c3Oc3cc5c(cc3OC)CCN(C)[C@@H]5C2)OCO4)CCN1C = no (0)
4. C#CCOC(=O)[C@@H](C)Oc1ccc(Oc2ncc(Cl)cc2F)cc1 = no (0)
5. Cc1ccccc1C = no (0)
6. CC(=O)OCC(=O)[C@@]1(OC(C)=O)[C@@H](C)C[C@H]2[C@@H]3C[C@H](F)C4=CC(=O)C=C[C@]4(C)[C@@]3(F)[C@@H](O)C[C@@]21C = no (0)
7. CN1CCN(C2=Nc3ccccc3Sc3ccc(Cl)cc32)CC1 = no (0)
8. CCCC1CCC(=O)CC1 = no (0)
9. CCn1c(=O)c2c(nc(/C=C/c3ccc(OC)c(OC)c3)n2C)n(CC)c1=O = no (0)
10. N#CCCOCCC#N = no (0)
11. O=CC(=O)c1ccccc1 = yes (1)
12. CC(C)C(O)C(C)(C)CO (centres undefined) = no (0)
13. NC(=O)c1ccncc1 = no (0)
14. ON=C1CCCC1 = no (0)
15. O=CNc1ccccc1 = no (0)
16. Clc1ccc2c(c1)CCc1cccnc1C2=C1CCNCC1 = no (0)
17. CCCCCCCC[N+](CCCCCCCC)(CCCCCCCC)CCCCCCCC = yes (1)
18. CCOCC(C)O (centres undefined) = no (0)
19. Cc1c(N=C=O)cccc1N=C=O = no (0)
20. CCC(=O)OC/C=C(\C)CCC=C(C)C = no (0)
21. S=c1[nH][nH]c(=S)s1 = no (0)
22. O=C1c2ccccc2C(=O)C1(O)O = no (0)
23. C/C=C/C=C/COC(=O)C(C)C = no (0)
24. O=C(O)C1CCC1 = no (0)
25. Nc1ccccc1O = no (0)
26. Nc1nc(=O)n([C@@H]2O[C@H](CO)[C@@H](O)[C@@H]2F)cc1I = no (0)
27. CNC(C)=O = no (0)
28. CC[C@@H]1C[C@H](N(Cc2cc(C(F)(F)F)cc(C(F)(F)F)c2)C(C)=O)c2cc(C(F)(F)F)ccc2N1C(=O)OC(C)C = no (0)
29. SCCSCCS = no (0)
30. COCCOCCOCCOCCOC = no (0)
31. CCO[C@@H]1O[C@H](C(COCc2ccccc2)OCc2ccccc2)[C@H](OCc2ccccc2)[C@H]1O (some centres undefined) = no (0)
32. CN(C)CCN(Cc1ccccc1)c1ccccn1 = no (0)
33. O=S1(=O)CCCC1 = no (0)
34. CCN(CC)CC = no (0)

---

- assayed_system: Acetylcholinesterase (Homo sapiens) (UniProt P22303)
- Sequence (P22303 whole entry, looked up): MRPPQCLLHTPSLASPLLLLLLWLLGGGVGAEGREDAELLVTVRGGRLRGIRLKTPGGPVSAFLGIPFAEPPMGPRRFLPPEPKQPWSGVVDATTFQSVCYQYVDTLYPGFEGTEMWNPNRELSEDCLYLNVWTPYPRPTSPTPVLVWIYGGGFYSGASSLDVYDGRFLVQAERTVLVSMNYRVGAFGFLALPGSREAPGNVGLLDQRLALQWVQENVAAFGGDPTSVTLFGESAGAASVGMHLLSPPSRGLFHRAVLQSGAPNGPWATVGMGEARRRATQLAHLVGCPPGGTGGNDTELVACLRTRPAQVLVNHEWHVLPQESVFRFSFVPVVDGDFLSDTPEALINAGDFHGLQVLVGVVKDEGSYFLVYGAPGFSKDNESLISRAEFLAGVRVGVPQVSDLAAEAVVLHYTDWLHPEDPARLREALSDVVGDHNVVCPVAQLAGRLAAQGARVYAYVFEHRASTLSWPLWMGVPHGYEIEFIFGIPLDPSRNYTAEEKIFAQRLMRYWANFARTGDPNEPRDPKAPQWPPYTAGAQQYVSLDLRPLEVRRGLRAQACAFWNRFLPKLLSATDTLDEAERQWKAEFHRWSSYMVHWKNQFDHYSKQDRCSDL
- experiment: Acetylcholinesterase (AChE) small molecule antagonists: fluorescence cell-based qHTS assay (AID 1347398); further: nearly all actives have a fitted effect of over 50% in size
- conditions: SH-SY5Y cells; AChE activity; series mostly up to 115 µM
Results filed as inconclusive are left out. The source made the active and inactive calls. Calls follow the shape of the full dose curve.
Outcome codes: T (active), F (inactive)

1) O=C(O)c1ccccc1C(=O)Nc1ccc(S(=O)(=O)Nc2nccs2)cc1 = F
2) Cc1ccc(NC(N)=O)cc1 = F
3) CC(Cc1ccccc1)(NC(=O)CN)c1ccccc1 (configuration not stated) = F
4) CCCc1ccc(N)cc1 = F
5) CCCCCCCC[N+](CCCCCCCC)(CCCCCCCC)CCCCCCCC = T
6) CCCCCCOC(=O)CCC = F
7) CO[Si](CCCNCCC[Si](OC)(OC)OC)(OC)OC = F
8) COc1ccc(Cl)cc1C = F
9) CC(=O)NC(=O)c1ccccc1O = F
10) Cc1cc(O)ccc1O = T
11) CC[C@@H]1C[C@H](N(Cc2cc(C(F)(F)F)cc(C(F)(F)F)c2)C(C)=O)c2cc(C(F)(F)F)ccc2N1C(=O)OC(C)C = F
12) Cc1onc(-c2c(Cl)cccc2Cl)c1C(=O)N[C@@H]1C(=O)N2[C@@H]1SC(C)(C)[C@@H]2C(=O)O = F

---

- assayed_system: Acetylcholinesterase (Homo sapiens) (UniProt P22303)
- experiment: Acetylcholinesterase (AChE) small molecule antagonists: fluorescence cell-based qHTS assay (AID 1347398); further: nearly all actives have a fitted effect of over 50% in size; further: potency means the concentration at half of the fitted maximal effect
- conditions: SH-SY5Y cells; AChE activity; series mostly up to 115 µM
Records with an inconclusive call do not appear. The source made the active and inactive calls. Calls follow the shape of the full dose curve.
property_name: Potency

1. CCCCCCC(=O)OCC = inactive
2. CC(C)(C)C(=O)Oc1ccc(S(=O)(=O)Nc2ccccc2C(=O)NCC(=O)O)cc1 = inactive
3. C[Si](Cl)(c1ccccc1)c1ccccc1 = inactive
4. CN(C)CCN1CCN(c2cccc(Cl)c2)C1=O = inactive
5. S=P(N1CC1)(N1CC1)N1CC1 = 33.4 µM (active)

---

- assayed_system: Acetylcholinesterase (Homo sapiens) (UniProt P22303)
- experiment: Acetylcholinesterase (AChE) small molecule antagonists: enzyme-based qHTS assay (AID 1347397); further: nearly all actives have a fitted effect of over 55% in size
- conditions: AChE enzyme activity inhibition; series mostly up to 115 µM
- Description: National Center for Advancing Translational Sciences [NCATS] Division of Preclinical Innovation [DPI] U.S. Environmental Protection Agency [EPA] National Institutes of Environmental Health Sciences [NIEHS] National Toxicology Program [NTP] U.S. Food and Drug Administration [FDA] Acetylcholinesterase (AChE) is the primary cholinesterase in the body that hydrolyzes a key neurotransmitter, acetylcholine. Inhibition of AChE activity can lead to neurotoxicity. […]
Active and inactive are the calls of the source. The call rests on the fitted dose curve.
Outcome codes: active, inactive

1. C[C@@H](CN(C)C)CN1c2ccccc2Sc2ccccc21 = inactive
2. CC(=O)O[C@@H]1C[C@@H]2CC[C@@]1(C)C2(C)C = inactive
3. O/N=C/C=N/O = inactive
4. c1ccc(CCCc2ccccn2)cc1 = inactive
5. Brc1cc(Br)c(Oc2cc(Br)c(Br)cc2Br)cc1Br = inactive
6. CCCCC(CC)COP(=O)(O)O (centres undefined) = inactive
7. OCCCCCCO = inactive
8. O=C(/C=C/c1ccccc1)NCCO = inactive
9. NS(=O)(=O)c1cc(C2(O)NC(=O)c3ccccc32)ccc1Cl (centres undefined) = inactive
10. CC1c2ccccc2CN1NC(=O)c1ccc(Cl)c(S(N)(=O)=O)c1 (centres undefined) = inactive
11. Cc1cnc(NS(=O)(=O)c2ccc(N)cc2)nc1 = inactive
12. O=C1CC[C@@H](C(=O)O)N1 = inactive
13. O=C[C@H](O)[C@@H](O)[C@H](O)[C@H](O)CO = inactive
14. CC(=O)CCc1ccc(O)cc1 = inactive
15. N#CSCC(=O)O = inactive
16. Cc1ccccc1N1C(=O)c2cc(S(N)(=O)=O)c(Cl)cc2NC1C (centres undefined) = inactive
17. CCCCOC(=O)CCCCC(=O)OCCCC = inactive
18. CCCCc1ccc2cccc(S(=O)(=O)O)c2c1 = inactive
19. CCCCCOC(=O)c1ccc(O)cc1 = inactive
20. CCCCCCCCOCCCN = inactive
21. Cc1ccc(N(CC2=NCCN2)c2cccc(O)c2)cc1 = inactive
22. Cc1ccc(C(N)=O)cc1N = inactive
23. Cc1c(I)c(=O)n(-c2ccccc2)n1C = inactive
24. Oc1ccc(C(O)CNCCCCCCNCC(O)c2ccc(O)c(O)c2)cc1O (centres undefined) = inactive
25. C=C(C)C(=O)OCC(C)(C)COC(=O)C(=C)C = inactive
26. c1ccc(CNCc2ccccc2)cc1 = inactive
27. CCN(CC)CCOc1ccc2c(c1)C(=O)c1cc(OCCN(CC)CC)ccc1-2 = active
28. Nc1ccc(S(=O)(=O)Nc2ccccc2)cc1 = inactive
29. CCCCCCC(C)Nc1ccc(Nc2ccccc2)cc1 (centres undefined) = inactive

---

- assayed_system: Acetylcholinesterase (Homo sapiens) (UniProt P22303)
- experiment: Acetylcholinesterase (AChE) small molecule antagonists: fluorescence cell-based qHTS assay (AID 1347398); further: nearly all actives have a fitted effect of over 50% in size
- conditions: SH-SY5Y cells; AChE activity; series mostly up to 115 µM
Results filed as inconclusive are left out. The source made the active and inactive calls. Calls come from the whole dose curve.
Outcome codes: 1 for active, -1 for inactive

1) O=C1c2ccccc2S(=O)(=O)N1CCCCN1CCN(c2ncccn2)CC1 = -1
2) COC(=O)c1cc(C(=O)OC)cc(S(=O)(=O)O)c1 = -1
3) CCC1=C(C)CN(C(=O)NCCc2ccc(S(=O)(=O)NC(=O)NC3CCC(C)CC3)cc2)C1=O (centres undefined) = -1
4) CCOc1ccc(Cc2nccc3cc(OCC)c(OCC)cc23)cc1OCC = 1
5) O=C[C@H](O)[C@@H](O)[C@H](O)[C@H](O)CO = -1
6) C=CC(C)C#N (centres undefined) = -1
7) NC(=O)C1CO1 (centres undefined) = -1
8) OCC(CO)n1cnc(-c2ccc(F)cc2)c1-c1ccnc(Oc2ccccc2)n1 = -1
9) Oc1ccc(Nc2ccccc2)cc1 = -1
10) CCCCCc1ccc(Cl)cc1 = -1
11) O/N=C/C=N/O = -1
12) COc1cccc(OC)c1C(=O)O = -1
13) Oc1cccc(O)c1O = -1
14) Cc1nccn1CC1CCc2c(c3ccccc3n2C)C1=O (centres undefined) = 1
15) FC1(F)C(F)(F)C(F)(F)C2(F)C(F)(F)C(F)(F)C(F)(F)C(F)(F)C2(F)C1(F)F (centres undefined) = -1
16) O=[N+]([O-])c1cc(Cl)c(Cl)c(Cl)c1Cl = -1
17) CC1(C)O[C@@H]2C[C@H]3[C@@H]4CCC5=CC(=O)CC[C@]5(C)[C@@]4(F)[C@@H](O)C[C@]3(C)[C@]2(C(=O)CCl)O1 = -1
18) CC[C@H]1CC[C@H](NCc2cc3c(cc2OC)[C@H]2C[C@H]2C(=O)N3C)[C@H](c2ccccc2)N1 = 1
19) Cn1c(=O)c2c(ncn2CC(=O)O)n(C)c1=O = -1
20) CC(C)(C)c1ccc(C=O)cc1 = -1
21) CC(C)c1ccc2c(c1)CC[C@H]1[C@](C)(CN)CCC[C@]21C = -1
22) CC(=N\O)/C(C)=N/O = -1
23) CC(=O)OC(OC(C)=O)c1ccc([N+](=O)[O-])o1 = -1
24) CCCCCCCCN1CCCC1=O = -1
25) CCN1CCC[C@H]1CNC(=O)c1cc(S(N)(=O)=O)ccc1OC = -1
26) Nc1ccn([C@@H]2O[C@H](CO)[C@@H](O)C2(F)F)c(=O)n1 = -1
27) N#Cc1ccc(C(c2ccc(C#N)cc2)n2cncn2)cc1 = -1
28) CCCCCCCCCCCCCOP(=O)(O)O = -1
29) NC(=O)Nc1ccc(Cl)cc1 = -1
30) C=C1CC[C@H]2C[C@@H]1C2(C)C = -1
31) COC(=O)c1ccccc1Cl = -1
32) Oc1ccc(Cl)cc1C1CCCC1 = -1
33) Cc1cccc2nccnc12 = -1
34) C(=C\c1ccccc1)/c1ccccc1 = -1
35) C=CCCCCCCCCCCCC = -1
36) CC(=O)Oc1ccc(C(C)=O)cc1 = -1
37) CCOC(=O)CC = -1
38) CSc1nc(NC2CC2)nc(NC(C)(C)C)n1 = -1
39) CC(C)(C)NCC(O)COc1cccc2c1C[C@H](O)[C@H](O)C2 (some centres undefined) = -1
